So I've got a bunch of compounds here, and I need their MIC values.
test system: NRP Mtb H37Rv cells; assay: Low-oxygen recovery assay (LORA) MIC; format: cell-based, Mycobacterium tuberculosis; settings: Mycobacterium tuberculosis, H37RV; NRP Mtb; Tables 1-4 and text; read-out: LORA MIC - ITR

Value of measured MIC for the entry CC(C)(C)C1CCC(Nc2n[n+]([O-])c3ccccc3[n+]2[O-])CC1 (centres unmarked) [Compound 8j] : < 0.12 µg/mL

Value of measured MIC for the entry Cc1ncc([N+](=O)[O-])n1CCO [Metronidazole, reference compound] : 11 µg/mL

Value of measured MIC for the entry CCNc1n[n+]([O-])c2cc(Cl)ccc2[n+]1[O-] [Compound 15ba] : 0.41 µg/mL

Value of measured MIC for the entry COCCNC(=O)c1ccc2c(c1)[n+]([O-])c(O)c(C#N)[n+]2[O-] [Cmpd 4] : > 32 µg/mL

Value of measured MIC for the entry CC(C)(C)Nc1n[n+]([O-])c2ccccc2[n+]1[O-] [Compound 8c] : 0.82 µg/mL

====

So I've got a bunch of compounds here, and I need their MIC values.
tested on: Mtb H37Rv; test: TB MIC - SRI, resazurin-based microplate assay; format: cell-based, Mycobacterium tuberculosis; conditions: Mycobacterium tuberculosis, H37RV, Table 5; read-out: MIC, H37Rv
Enter your answer as a number in µg/mL; do not include the unit.

Value of measured MIC for the entry CN(Cc1ccccc1)c1n[n+]([O-])c2cc3c(cc2[n+]1[O-])CCC3 [Compound 20t] : 0.31

Value of measured MIC for the entry CC1CCCCN1c1n[n+]([O-])c2cc3c(cc2[n+]1[O-])CCC3 (centres unmarked) [Compound 20w] : 1.2

Value of measured MIC for the entry CCNc1n[n+]([O-])c2cc(C)c(OC)cc2[n+]1[O-] [Compound 15ga] : 1.2

Value of measured MIC for the entry CN(CCc1ccccc1)c1n[n+]([O-])c2cc3c(cc2[n+]1[O-])CCC3 [Compound 20u] : 0.31

Value of measured MIC for the entry [O-][n+]1nc(N2CCCCC2)[n+]([O-])c2cc3c(cc21)CCC3 [Compound 20r] : 0.62

====

assay: MP MTT % viable (Table E1); details: MP (so in the source)
quantity kind: viability at 1 ug/ml (%)
Enter your answer as a number in %; do not include the unit.

Value of measured viability at 1 ug/ml for the entry [O-][n+]1nc(N2CC3CCCC3C2)[n+]([O-])c2cc3c(cc21)CCC3 (stereo not shown) : 107

Value of measured viability at 1 ug/ml for the entry [O-][n+]1nc(N2CCC(c3ccccc3Cl)C2)[n+]([O-])c2cc3c(cc21)CCC3 (stereo not shown) : 58

Value of measured viability at 1 ug/ml for the entry [O-][n+]1nc(N2CCC(c3ccccc3F)C2)[n+]([O-])c2cc3c(cc21)CCC3 (stereo not shown) : 102

Value of measured viability at 1 ug/ml for the entry [O-][n+]1nc(N2CCC(c3ccc(F)cc3)C2)[n+]([O-])c2cc3c(cc21)CCC3 (stereo not shown) : 69

====

tested on: NRP Mtb H37Rv cells; test: Low-oxygen recovery assay (LORA) MIC; format: cell-based, Mycobacterium tuberculosis; conditions: Mycobacterium tuberculosis, H37RV; NRP Mtb; Tables 1-4 and text; read-out: LORA MIC - ITR
quantity kind: log10 MIC (log10 of the value in µg/mL)
Please be aware that the numbers have been log10-transformed from MIC in µg/mL.

Value of measured log10 MIC for the entry CN(Cc1ccccc1)c1n[n+]([O-])c2cc3c(cc2[n+]1[O-])CCC3 [Compound 20t] : -0.39

Value of measured log10 MIC for the entry [O-][n+]1nc(NC2CCCCC2)[n+]([O-])c2ccccc21 : -0.12

Value of measured log10 MIC for the entry CS(=O)(=O)N1CCN(c2n[n+]([O-])c3cc4c(cc3[n+]2[O-])CCC4)CC1 [Compound 20x] : 1.18

Value of measured log10 MIC for the entry CCNc1n[n+]([O-])c2cc(OC)ccc2[n+]1[O-] [Compound 15da] : 1.20

Value of measured log10 MIC for the entry [O-][n+]1nc(NC2CCC2)[n+]([O-])c2ccccc21 : -0.08

Value of measured log10 MIC for the entry [O-][n+]1nc(NC2CCCC2)[n+]([O-])c2ccc(Br)cc21 [Compound 15ce] : -0.34

Value of measured log10 MIC for the entry [O-][n+]1nc(N[C@@H]2C[C@H]3CC[C@@H]2C3)[n+]([O-])c2ccc(Br)cc21 [Compound 15cm] : -0.39

Value of measured log10 MIC for the entry O=C(Cn1ccnc1[N+](=O)[O-])NCCO [Etanidazole, reference compound] : 1.41

Value of measured log10 MIC for the entry [O-][n+]1nc(NC2CCCCCC2)[n+]([O-])c2ccccc21 : -0.30

Value of measured log10 MIC for the entry [O-][n+]1nc(N[C@@H]2C[C@H]3CC[C@@H]2C3)[n+]([O-])c2ccc(F)cc21 [Compound 15am] : -0.68

Value of measured log10 MIC for the entry [O-][n+]1nc(N2CCCC2)[n+]([O-])c2cc3c(cc21)CCC3 [Compound 20q] : 0.00
